test system: MS2 coat protein; test: apparent KD of MS2 coat protein, switch ON state; designed switch direction (-1 OFF switch, 1 ON switch): -1; higher = weaker reporter binding; conditions: FMN input: 0 or 200 uM; Eterna round: R93 (includes R88 designs)

polymer.sequence	unit.descriptor	apparent KD of MS2 coat protein
AAAAUGUCAGGAUAUGCGAAGGCAUCUGACAGAUGAGGAUUGCAGAAGGGACAUGAGGAUCACCCAUGUAAAAA	nM	66.7
GGUUGGCGAGGAUAUACAUGAGGAUCACCCAUGUGAGCGAAAAAAGUGAGAAAGAAAAGUAGAAGGCGCUGACG [salish99-ex3-50]	nM	45.7
GCUUGCCAAGGAUAUACAUGAGGAUCACCCAUGUGAGAGAAAAAAGUGAGAAAGAAAAGUAGAAGGUGGUGAGG [salish99-ex3-110]	nM	26.4
AAAAAACAUGAGGAUCACCCAUGUGAGGAUAUCGAAAAGAAAAGAAAAGAAAGAAGAACGAGAAGGCACAAGAA [Sneferu]	nM	36.6
CGAAUGUAAGGAUAUAGCCACAUUACGAAUAAGUAGUGUGGCUAGAAGGUACAUGAGGAUCACCCAUGUAUGGG [Exclusion 4.5 (AU closing FMN)]	nM	181
AAAGGGUCAGGAUAUGCACGAACAACAAAACAAAUAACGAUGCAGAAGGGACAUGAGGAUCACCCAUGUAUAAA [May 75]	nM	33.4
AAAAAGGCAGGAUAUACGAAGCUAAGACAAAUAAGCAAGGGACAUGAGGAUCACCCAUGUAGAAGGGCCAAAAA [Exclusion 2-01... 60% 3]	nM	41.1

====

tested on: K4 kissing-loop RNA reporter; test: apparent KD of K4 kissing-loop reporter; higher = weaker reporter binding; conditions: Eterna round: R107; input ligand: arginine 13.2 mM;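 further: bound reporter read as fluorescence of individual clusters on recovered sequencing chips by microscopy, with normalized cluster intensities fitted with a binding model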
observable: apparent KD of K4 kissing-loop reporter (nM)

polymer.sequence	test.value
UUUCGGCUCUGAGGAUAUUCGGACAAAUAUAGUGAUGUUGUAUAAGGAGGAGGGUGUUGGCAGUGAGGAGAAGGCAGAGGAGGAU [#07 K4 FMN B Exclusion]	208
GCAUCCAUGGCAGGAUAUAGGUUCGUGGAGUGAUGUUCCAUAGCCCGAGUGAUGUUCGUUAUCCACCUAGAAGGGCCAUGGAUGC [whbob_Ex_FMNB__2th212]	205
CGAUCUGAUAGCAGUGAUGUUGCUACAGAUACCAGUCCAGAUCGAGACCCUUGGCAGCUGACCCGGCAUGUGCUAUGGUAGAUCG [Theo A Ex t1]	127
AUGGUUGUCGUAGGAUAUGUAGGUAAUUCCUAUAGCAGUGAUGUUGCUAAUAUCUUGGAAGAAGGAACAGAAGGACGAUAACCAC [KL-SSFMN-B1 #analogue]	109
UGAUACCAGGCGGCCGCCACUCCCGCAGGUCAAAGACCUGCGAAGCUGGUUCUCCAGUGAUGUUGGAGGACCGGGCCUGGUAUCU [FiskerMod 26 - Jieux - Exclusion - Tryptophan B]	141
GGAUAGGAUAGAGGAUAUGGAUUAGGCAAGAAUAACUUGUCUUGUAAAUCCAUGAGGAGUGAUGUUCCAGAAGGCUGUCCUAUCG [MatMod 6 - Jieux - Exclusion - FMN B]	113
AAAUGUUUGUAUUUGAACAAUUUCUUUAGGGAGGAUAUUGGUAAUACAAGAAGGCCCUGAUGGGAGUGAUGUUCCCAUAACGCGG [Exclusion FMN A GF15]	83.9
GUCCCGAGUGAUGUUCGGGUCGUUCGGGAAGGAGCGCCCGGAAGGGCAGGUAGGUCGCCCGGAUCCCUCAGGUAACUGAGGGACC [#2 Same State - Arginine A Attempt #25 (HarryS)]	334
CCGAGCUACAGCGAUACCAGUGUGGAGUGAUGUUCCCUGGUCCGGGCUGUUGUUCCCUUGCGCCCUUGGCAGCGCAGAAGCAGCU [Exclusion Theophylline B GF 14]	316
UCUGGUAUAUCUGAUACCAGAGUAUAGUAUCAAUUGCAUAUGGAGUGAUGUUCCAUACAACUCCCUUGGCAGCAGAUCUAUCUCU [Same State Theophylline B GF 24]	249
AUUCAGAUCUGAAGGAGCGCCUUGACAAAUUACUGCUUUGAGCAGUGAUGUUGCUCAAUUAGGCAGGUAGGUCGCAGAUCUAACC [Arg B Ex t7]	335

The measured values listed here are drawn from the supplement of paper PMC9170038.
